// values below are reported IC50
# test target: hPAD4 (Homo sapiens (Human))
# Sequence (Q9UM07 whole entry): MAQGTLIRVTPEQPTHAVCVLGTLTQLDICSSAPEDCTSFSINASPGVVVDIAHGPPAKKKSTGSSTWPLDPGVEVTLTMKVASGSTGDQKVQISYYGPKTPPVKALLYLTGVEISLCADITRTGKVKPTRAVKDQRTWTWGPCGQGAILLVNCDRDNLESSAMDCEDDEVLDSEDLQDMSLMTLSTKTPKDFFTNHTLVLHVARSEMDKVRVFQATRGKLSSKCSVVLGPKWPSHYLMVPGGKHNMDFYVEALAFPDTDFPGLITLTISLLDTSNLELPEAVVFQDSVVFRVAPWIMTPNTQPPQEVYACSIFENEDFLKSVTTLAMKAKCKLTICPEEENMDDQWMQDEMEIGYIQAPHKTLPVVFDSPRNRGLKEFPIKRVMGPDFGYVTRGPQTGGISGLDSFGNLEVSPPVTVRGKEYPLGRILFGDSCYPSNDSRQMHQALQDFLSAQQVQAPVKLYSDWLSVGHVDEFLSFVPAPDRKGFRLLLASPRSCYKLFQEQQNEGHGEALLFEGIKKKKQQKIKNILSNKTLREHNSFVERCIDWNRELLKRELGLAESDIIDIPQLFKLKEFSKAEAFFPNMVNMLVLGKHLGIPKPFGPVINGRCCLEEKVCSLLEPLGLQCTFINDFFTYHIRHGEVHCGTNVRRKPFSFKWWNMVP
# test method notes: hPAD4 AR assay (Table 2)
# Assay type: biochemical
# condition label: read-out: hPAD4 AR pIC50 (converted)

Look over these answered cases.
{"compound": "COc1cc(C(=O)N2C[C@H]3CC[C@@H]2[C@@H]3N)cc2nc(-c3ccc(F)nc3CC3CC3)n(C)c12 [I-117]", "IC50": "< 1000 nM"}
{"compound": "COc1cc(C(=O)N2C[C@H]3CC[C@@H]2[C@@H]3N)cc2nc(-c3ccc(C#N)n3C3CC3)n(C)c12 [I-81]", "IC50": "< 1000 nM"}

So what does the record say about IC50 for CCc1c(-c2nc3cc(C(=O)N4C[C@H]5CC[C@@H]4[C@@H]5N)cc(OC)c3n2C)ccn1S(=O)(=O)c1ccc(C)cc1 [I-92] ?
< 1000 nM
